- target_entity: Estrogen receptor beta (Homo sapiens) (UniProt Q92731)
- Sequence (Q92731 whole entry): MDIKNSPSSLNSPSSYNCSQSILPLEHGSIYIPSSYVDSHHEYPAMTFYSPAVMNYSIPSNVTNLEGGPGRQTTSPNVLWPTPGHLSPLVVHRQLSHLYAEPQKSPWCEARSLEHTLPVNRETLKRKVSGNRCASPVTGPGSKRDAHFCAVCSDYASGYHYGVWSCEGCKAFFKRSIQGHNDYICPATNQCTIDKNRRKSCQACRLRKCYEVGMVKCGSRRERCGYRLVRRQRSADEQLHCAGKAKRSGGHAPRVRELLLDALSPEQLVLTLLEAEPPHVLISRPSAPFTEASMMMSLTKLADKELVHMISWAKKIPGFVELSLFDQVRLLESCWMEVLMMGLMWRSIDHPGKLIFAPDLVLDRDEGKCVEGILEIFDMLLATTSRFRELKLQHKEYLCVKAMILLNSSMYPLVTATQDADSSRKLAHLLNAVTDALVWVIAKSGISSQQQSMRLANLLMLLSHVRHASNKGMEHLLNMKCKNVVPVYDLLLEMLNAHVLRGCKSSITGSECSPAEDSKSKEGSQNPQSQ
- test_description: Activity at ERbeta expressed in CHO cells co-transfected with ERE plasmid assessed as relative transcriptional activation at 10 nM by luciferase reporter assay relative to estradiol
- Assay type: cell-based

{"smiles_record": "C[C@]12CC[C@H](c3ccc(O)cc3F)C[C@@H]1CC[C@@H]2O", "quantity_unit": "%", "Activity": 146}
{"smiles_record": "C[C@]12CC[C@H](c3ccc(O)c(F)c3)C[C@@H]1CC[C@@H]2O", "quantity_unit": "%", "Activity": 14}
{"smiles_record": "Cc1cc(O)ccc1[C@H]1CC[C@@]2(C)[C@@H](CC[C@@H]2O)C1", "quantity_unit": "%", "Activity": 149}
{"smiles_record": "C[C@]12CC[C@H](c3ccc(O)cc3)C[C@@H]1CC[C@@H]2O", "quantity_unit": "%", "Activity": 164}

----------
Item-by-item account of Selectivity ratio
- test_description: Selectivity ratio of RBA for ERbeta to RBA for ERalpha

{"smiles_record": "C[C@]12CC[C@@H](c3ccc(O)cc3)C[C@@H]1CC[C@@H]2O", "Selectivity ratio": 9.8}
{"smiles_record": "C[C@]12CC[C@H](c3ccc(O)cc3)C[C@@H]1CC[C@@H]2O", "Selectivity ratio": 14}
{"smiles_record": "C[C@]12CC[C@H](c3ccc(O)cc3Cl)C[C@@H]1CC[C@@H]2O", "Selectivity ratio": 3.4}
{"smiles_record": "C[C@]12CC[C@H](c3cc(F)c(O)cc3F)C[C@@H]1CC[C@@H]2O", "Selectivity ratio": 8.7}
{"smiles_record": "C[C@]12CC[C@H](c3ccc(O)c(F)c3)C[C@@H]1CC[C@@H]2O", "Selectivity ratio": 8.7}
{"smiles_record": "C[C@]12CC[C@H](c3ccc(O)c(F)c3F)C[C@@H]1CC[C@@H]2O", "Selectivity ratio": 9.3}
{"smiles_record": "C=Cc1cc(O)cc2nc(-c3ccc(O)c(F)c3)oc12", "Selectivity ratio": 226}

----------
Item-by-item account of RBA
- target_entity: Estrogen receptor (Homo sapiens)
- test_description: Displacement of [3H]estradiol form ERalpha assessed as relative binding affinity relative to estradiol

{"smiles_record": "C[C@]12CC[C@@H](c3ccc(O)cc3)C[C@@H]1CC[C@@H]2O", "RBA, %": 0.06}
{"smiles_record": "C[C@]12CC[C@H](c3cc(F)c(O)cc3F)C[C@@H]1CC[C@@H]2O", "RBA, %": 0.38}
{"smiles_record": "C[C@]12CC[C@H](c3ccc(O)c(F)c3F)C[C@@H]1CC[C@@H]2O", "RBA, %": 4.6}
{"smiles_record": "C[C@]12CC[C@H](c3ccc(O)cc3)C[C@@H]1CC[C@@H]2O", "RBA, %": 1.5}
{"smiles_record": "Cc1cc(O)ccc1[C@H]1CC[C@@]2(C)[C@@H](CC[C@@H]2O)C1", "RBA, %": 2.8}
{"smiles_record": "C[C@]12CC[C@H](c3ccc(O)cc3F)C[C@@H]1CC[C@@H]2O", "RBA, %": 27}
{"smiles_record": "C[C@]12CC[C@H](c3cc(F)c(O)c(F)c3)C[C@@H]1CC[C@@H]2O", "RBA, %": 0.04}
{"smiles_record": "C[C@]12CC[C@H](c3ccc(O)c(F)c3)C[C@@H]1CC[C@@H]2O", "RBA, %": 1}
{"smiles_record": "C[C@]12CC[C@H](c3cc(F)c(O)c(F)c3F)C[C@@H]1CC[C@@H]2O", "RBA, %": 0.19}
{"smiles_record": "C[C@]12CC[C@H](c3ccc(O)cc3Cl)C[C@@H]1CC[C@@H]2O", "RBA, %": 49}

----------
- target_entity: Estrogen receptor beta (Homo sapiens) (UniProt Q92731)
- test_description: Displacement of [3H]estradiol form ERbeta assessed as relative binding affinity relative to estradiol
Listed next: entries and their corresponding RBA.

{"smiles_record": "C[C@]12CC[C@H](c3cc(F)c(O)c(F)c3F)C[C@@H]1CC[C@@H]2O", "target_entity": "Estrogen receptor beta (Homo sapiens) (UniProt Q92731)", "quantity_unit": "%", "RBA": 1.73}
{"smiles_record": "C[C@]12CC[C@H](c3ccc(O)cc3F)C[C@@H]1CC[C@@H]2O", "target_entity": "Estrogen receptor beta (Homo sapiens) (UniProt Q92731)", "quantity_unit": "%", "RBA": 135}
{"smiles_record": "C[C@]12CC[C@@H](c3ccc(O)cc3)C[C@@H]1CC[C@@H]2O", "target_entity": "Estrogen receptor beta (Homo sapiens) (UniProt Q92731)", "quantity_unit": "%", "RBA": 0.59}
{"smiles_record": "C[C@]12CC[C@H](c3cc(F)c(O)cc3F)C[C@@H]1CC[C@@H]2O", "target_entity": "Estrogen receptor beta (Homo sapiens) (UniProt Q92731)", "quantity_unit": "%", "RBA": 3.3}
{"smiles_record": "C[C@]12CC[C@H](c3ccc(O)c(F)c3)C[C@@H]1CC[C@@H]2O", "target_entity": "Estrogen receptor beta (Homo sapiens) (UniProt Q92731)", "quantity_unit": "%", "RBA": 8.7}

----------
- test_description: Selectivity ratio of RBA for ERbeta to RBA for ERalpha
Quick rule for you: Selectivity ratio at 10 or higher means 1, lower means 0.

{"smiles_record": "O=c1c(-c2ccc(O)cc2)coc2cc(O)cc(O)c12", "label_class": 1}
{"smiles_record": "Cc1cc(O)ccc1[C@H]1CC[C@@]2(C)[C@@H](CC[C@@H]2O)C1", "label_class": 1}
{"smiles_record": "C[C@]12CC[C@H](c3cc(F)c(O)c(F)c3)C[C@@H]1CC[C@@H]2O", "label_class": 0}
{"smiles_record": "C[C@]12CC[C@H](c3cc(F)c(O)c(F)c3F)C[C@@H]1CC[C@@H]2O", "label_class": 0}
{"smiles_record": "C[C@]12CC[C@H](c3ccc(O)cc3F)C[C@@H]1CC[C@@H]2O", "label_class": 0}
